Sourced from ChEMBL document CHEMBL1149231

TGT: GABA-A receptor; alpha-1/beta-3/gamma-2 (Homo sapiens) (UniProt P14867+P18507+P28472)
PROTOCOL SUMMARY: Efficacy was determined against gamma-aminobutyric acid A receptor, alpha 1 expressed in Xenopus oocytes
Format: cell-based
DETAILS: Oocyte
REPORTED ENDPOINT: Efficacy (%)
Give bare numbers, in %.

# example entries with known answers
Oc1c2cnc3c(c2nn1-c1ccc(F)cc1)CCCC3 :: -2
Oc1c2cnc3c(c2nn1-c1ccc(OC(F)(F)F)cc1)CCCC3 :: 14
Oc1c2c(nn1-c1ccc(Cl)cc1)C1CCCCCC1N=C2 (centres undefined) :: 23

Pending molecule:
Prompt line: Reported Efficacy for GABA-A receptor; alpha-1/beta-3/gamma-2 (Homo sapiens) (UniProt P14867+P18507+P28472), given Oc1c2c(nn1-c1ccc(OC(F)F)cc1)C1COCCC1N=C2 (centres undefined) ?
Response line: 11
